experiment-summary: viability loss in pontine glioma line – cell-based, JHH-DIPG-1, MIPE4.0, CellTiter-Glo, qHTS, dose response (AID 1347062);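 as to AC50: cells exposed to compound for two days before readout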
condition-info: JHH-DIPG-1 viability, CellTiter-Glo ATP luminescence
Inconclusive results are not listed. Active and inactive are the calls of the source. The limit is not given here; nearly all actives have AC50 up to about 27 µM.
Form entry, call: pick from True = active, False = inactive

Example cases with answers are listed next.
molecule	assigned-category
Nc1ncnc2c1c(-c1cccc(OCc3ccccc3)c1)cn2C1CC(CN2CCC2)C1 (stereo not given)	True
Cc1cc(N2CCOCC2)cc2[nH]c(-c3c(NC[C@@H](O)c4cccc(Cl)c4)cc[nH]c3=O)nc12	True
C[C@@H]1C(=O)OC2[C@H](O)[C@]34[C@H]5C[C@@H](C(C)(C)C)[C@]36[C@@H](OC(=O)[C@@H]6O)O[C@@]4(C(=O)O5)[C@]21O (stereo not given in full)	False
COc1cc2nc(-c3ccc(N4CCN(C)CC4)cc3)nc(NCCN3CCOCC3)c2cc1OC	True
CN[C@@H]1C[C@H]2O[C@@](C)([C@@H]1OC)n1c3ccccc3c3c4c(c5c6ccccc6n2c5c31)C(=O)N[C@H]4O	True
CC(C)Oc1cc(Nc2nc(N[C@@H](C)c3ccc(F)cn3)ncc2Cl)[nH]n1	True
Cc1c(CCOc2ccc(C(=O)O)cc2)c2cc(Cl)ccc2n1C(c1ccccc1)c1ccccc1	False
c1cc(-c2sc(-c3ccncc3)c(-c3ccncc3)c2-c2ccncc2)ccn1	False

Query :: Hi, sorry to bother you, what did the test record for C[C@@H]1C/C=C/C=C/C=C/C=C/[C@@H](O[C@@H]2O[C@H](C)[C@@H](O)[C@H](N)[C@@H]2O)C[C@@H]2O[C@](O)(C[C@@H](O)C[C@@H]3O[C@H]3/C=C/C(=O)O1)C[C@H](O)[C@H]2C(=O)O ?
Result :: False

Query :: Hi, sorry to bother you, what did the test record for NS(=O)(=O)c1ccc(Nc2nc(OCC3CCCCC3)c3[nH]cnc3n2)cc1 ?
Result :: False

Query :: Hi, sorry to bother you, what did the test record for Fc1ccc(CNc2ncnc3ccc(F)cc23)cc1 ?
Result :: False

Query :: Hi, sorry to bother you, what did the test record for O=C(O)C1=NC(C(=O)O)CC(/C=C/N2c3cc(O)c(OC4OC(CO)C(O)C(O)C4O)cc3CC2C(=O)O)=C1 (stereo not given) ?
Result :: False

Query :: Hi, sorry to bother you, what did the test record for NC1CCC(Nc2nc(Nc3ccc(C(=O)N4CCCCC4)cc3)c3ncn(-c4cccc(F)c4)c3n2)CC1 (stereo not given) ?
Result :: False

Query :: Hi, sorry to bother you, what did the test record for O=c1[nH]nc(OCCCc2ccc(Cl)cc2)c(NCc2cccnc2)c1Br ?
Result :: True

Query :: Hi, sorry to bother you, what did the test record for COc1ccc(-c2cc3c(C)nc(N)nc3n(C3CCC(OCCO)CC3)c2=O)cn1 (stereo not given) ?
Result :: True

Query :: Hi, sorry to bother you, what did the test record for CC1(C)CNc2cc(NC(=O)c3cccnc3NCc3ccncc3)ccc21 ?
Result :: False

* * *

experiment-summary: growth inhibition, single agent or in combination, cell-based, chromothripsis tumors, cisplatin or BGB combos (AID 1671449);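 also: cells exposed for 96 hours; 0% = vehicle DMSO and 100% = killing by high DMSO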
condition-info: LFS_MB_P medulloblastoma cells, measured here: combination with BGB IC40, at 0.005 µM
endpoint: inhibition (%)
Field format: number, assumed %, no unit text.

Query :: Consider the compound O=C(O)[C@H](Cc1c[nH]c2ccccc12)N1C(=O)c2ccccc2C1=O and give its recorded inhibition.
Result :: -16.5

Query :: Consider the compound O=c1[nH]cnc2ccccc12 and give its recorded inhibition.
Result :: -30.5

Query :: Consider the compound CC(=O)Nc1ccc(C(=O)Nc2ccccc2N)cc1 and give its recorded inhibition.
Result :: 90.3

Query :: Consider the compound CC(=O)Nc1nc(C)c(-c2ccc(Cl)c(S(=O)(=O)NCCO)c2)s1 and give its recorded inhibition.
Result :: -42

Query :: Consider the compound COc1ccc(C(=O)CC2(O)C(=O)Nc3c(Cl)ccc(Cl)c32)cc1 (stereo unspecified) and give its recorded inhibition.
Result :: -20.5

Query :: Consider the compound Nc1nc2n[nH]nc2c(=O)[nH]1 and give its recorded inhibition.
Result :: -37

Query :: Consider the compound COc1ccc(C(=O)C2CCN(CC(=O)N(Cc3nc4c(c(=O)[nH]3)COCC4)CC3CC3)CC2)cc1 and give its recorded inhibition.
Result :: -42.7

Query :: Consider the compound Cc1cn([C@@H]2O[C@H](CO)[C@@H](O)[C@@H]2F)c(=O)[nH]c1=O and give its recorded inhibition.
Result :: 24.6

Query :: Consider the compound CS(=O)(=O)c1ccc(-c2nnc(/C=C/c3nnc(-c4ccc(C#N)cc4)o3)n2-c2ccccc2Cl)nc1 and give its recorded inhibition.
Result :: 6.48

Query :: Consider the compound Nc1ccc(-c2ccc3ncc4ccc(=O)n(-c5cccc(C(F)(F)F)c5)c4c3c2)cn1 and give its recorded inhibition.
Result :: 59.9

Query :: Consider the compound NC(=O)c1nc(F)c[nH]c1=O and give its recorded inhibition.
Result :: 86.3

* * *

experiment-summary: viability loss in pontine glioma line – cell-based, JHH-DIPG-1, MIPE4.0, CellTiter-Glo, qHTS, dose response (AID 1347062);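 as to AC50: cells exposed to compound for two days before readout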
condition-info: JHH-DIPG-1 viability, CellTiter-Glo ATP luminescence
Records with an inconclusive call do not appear. The source made the active and inactive calls. The limit is not given here; nearly all actives have AC50 up to about 27 µM.
endpoint: AC50

Worked cases, answers included:
compound	AC50
Cc1cnc(NC(=O)Nc2cc(Br)c(C)cc2OC[C@@H]2CNCCO2)cn1	1180 nM (active)
C=CCNc1c(O)cc2c(O)c1C[C@@H](C)C[C@H](OC)[C@H](O)[C@@H](C)/C=C(/C)[C@H](OC(N)=O)[C@@H](OC)/C=C\C=C(\C)C(=O)N2	332 nM (active)
CC(C)C[C@H](CC(=O)O)C(=O)N[C@@H](Cc1c[nH]c2ccccc12)C(=O)N[C@@H](C)c1ccccc1	inactive
O=C(/C=C/c1ccc(CN(CCO)CCc2c[nH]c3ccccc23)cc1)NO	235 nM (active)
CCS(=O)(=O)c1cccc(-c2cc(C(=O)NC3CCN(C)CC3)c(C)c3[nH]c4ncc(C)cc4c23)c1	2640 nM (active)
N#CC(=C(O)c1ccc(Cl)cc1Cl)c1nc2cc(Cl)ccc2c(=O)[nH]1	inactive
COc1ccc(OC)c(-c2nnc3ccc(-c4ccc(OC)c(O[C@@H]5CCOC5)c4)nn23)c1	7430 nM (active)
OCc1ccc(-c2nn(Cc3ccccc3)c3ccccc23)o1	inactive
CC(C)(N)C(=O)N[C@H](COCc1ccccc1)C(=O)N1CCC2(CC1)CN(S(C)(=O)=O)c1ccccc12	inactive
CCCNC(=O)Nc1ccc(Oc2ncnc3cc(OC)c(OC)cc23)cc1Cl	inactive

Query :: Consider the compound CCNC(=O)[C@H]1O[C@@H](n2cnc3c(N)nc(NCCc4ccc(CCC(=O)O)cc4)nc32)[C@H](O)[C@@H]1O and give its recorded AC50.
Result :: inactive

Query :: Consider the compound Clc1ccc(C(c2ccc(Cl)cc2)n2cc[n+](CC(OCc3ccc(Cl)cc3Cl)c3ccc(Cl)cc3Cl)c2)cc1 (stereo not drawn) and give its recorded AC50.
Result :: 16600 nM (active)

Query :: Consider the compound Cc1cnc(Nc2ccc(N3CCN(C)CC3)cc2)nc1Nc1cccc(S(=O)(=O)NC(C)(C)C)c1 and give its recorded AC50.
Result :: 5900 nM (active)

Query :: Consider the compound COC(=O)C[C@](O)(CCCC(C)(C)O)C(=O)O[C@@H]1C(OC)=CC23CCCN2CCc2cc4c(cc2[C@H]13)OCO4 (stereo partly drawn) and give its recorded AC50.
Result :: inactive

Query :: Consider the compound CC(C)(C)[C@H](NC(=O)c1ccc(N)c(Cl)c1)C(=O)N1CCC[C@H]1C(=O)N[C@H](C#N)CC(=O)O and give its recorded AC50.
Result :: inactive

Query :: Consider the compound CCCNC(=O)[C@H]1O[C@@H]1C(=O)N[C@H](C(=O)N1CCC[C@H]1C(=O)OC)C(C)CC (stereo partly drawn) and give its recorded AC50.
Result :: 16600 nM (active)

Query :: Consider the compound COc1cc2nccc(Oc3ccc(NC(=O)NC4CC4)c(Cl)c3)c2cc1C(N)=O and give its recorded AC50.
Result :: 2350 nM (active)

Query :: Consider the compound Cc1ccc(C(C)(O)c2nc3ccccc3s2)c(C)c1 (stereo not drawn) and give its recorded AC50.
Result :: inactive

* * *

experiment-summary: viability loss with induced miR-34 in A549 – imaging, A549 dox-inducible miR-34, nuclei and caspase counts, primary screen (AID 1347080)
condition-info: A549 miR-34 inducible, Hoechst nuclei count, 48 h; measured here: total cells with miR-34 induction; stronger effect = lower value
Bridge positions count the residues as written; N and C are the ends. Square brackets hold non-standard residues; d marks the D form. Peptide text beside a SMILES is read from it. * marks the point of attachment. X2 = CCC(C)C(N)C1=NC(C(=O)*)CS1; dOrn = NCCC[C@@H](N)C(=O)O
endpoint: cell count
// no unit string in output, number only

Worked cases, answers included:
compound	cell count
C[C@]12CC[C@@H]3c4cc(O)c(O)cc4CC[C@H]3[C@@H]1CC[C@@H]2O	5010
Cc1cc(C(=O)NOCCO)c(Nc2ccc(I)cc2F)n(C)c1=O	3770
Nc1cc(C(F)(F)F)c(-c2cc(N3CCOCC3)nc(N3CCOCC3)n2)cn1	1500

Let us examine a further case.
Query :: Consider the compound CCC(C)C(N)C1=NC(C(=O)N[C@@H](CC(C)C)C(=O)N[C@H](CCC(=O)O)C(=O)N[C@H](C(=O)N[C@H]2CCCCNC(=O)[C@H](CC(N)=O)NC(=O)[C@@H](CC(=O)O)NC(=O)[C@H](Cc3cnc[nH]3)NC(=O)[C@@H](Cc3ccccc3)NC(=O)[C@H]([C@@H](C)CC)NC(=O)[C@@H](CCCN)NC2=O)[C@@H](C)CC)CS1 (some centres not stated) (X2-L[dE]IK[dOrn]I[dF]H[dD]N; lactam 4-C) and give its recorded cell count.
Result :: 9810
